target: ACVR1B (human); assay: radiometric filter-binding kinase assay, Kinase HotSpot; details: compound 0.5 µM; ATP 10 µM
Readings of residual activity for the listed compounds
A number alone suffices; assume %.

Sample records with residual activity:
compound	unit.tag	residual activity
Cc1ccc(Nc2nccc(N(C)c3ccc4c(C)n(C)nc4c3)n2)cc1S(N)(=O)=O	%	100
O=C1NC(=O)C(c2cn(CCCn3ccnc3)c3ccccc23)=C1Nc1ccccc1	%	96.2
Cc1ccc(S(=O)(=O)/C=C/C#N)cc1	%	107
CC(C)N(CCC(=O)c1ccc2ccccc2c1)Cc1ccccc1	%	99.5
CC[n+]1c(/C=C/N(C)c2ccccc2)n(-c2ccccc2)c2ccc(-c3nc4ccccc4s3)cc21	%	110
CCC(=O)Nc1ccc2ncnc(Nc3cccc(Br)c3)c2c1	%	96.5
N#CC(C#N)=C(N)/C(C#N)=C/c1ccc(O)cc1	%	101
O=S(=O)(c1cccc2cnccc12)N1CCCNCC1	%	100

residual activity in this record for `CNC(=O)c1cc(Oc2ccc(NC(=O)Nc3ccc(Cl)c(C(F)(F)F)c3)cc2)ccn1` : 102

// field: residual activity; key: `CCN(CC)CCNC(=O)c1c(C)[nH]c(/C=C2\C(=O)Nc3ccc(F)cc32)c1C` ; value = 101

What the record says about `CNc1cc2c(Nc3cccc(Br)c3)ncnc2cn1` : residual activity is 97.7

----------
target: AURKC (human) (UniProt Q9UQB9); test: radiometric filter-binding kinase assay, Kinase HotSpot; details: compound 0.5 µM; ATP 10 µM
Sequence (Q9UQB9 whole entry, looked up): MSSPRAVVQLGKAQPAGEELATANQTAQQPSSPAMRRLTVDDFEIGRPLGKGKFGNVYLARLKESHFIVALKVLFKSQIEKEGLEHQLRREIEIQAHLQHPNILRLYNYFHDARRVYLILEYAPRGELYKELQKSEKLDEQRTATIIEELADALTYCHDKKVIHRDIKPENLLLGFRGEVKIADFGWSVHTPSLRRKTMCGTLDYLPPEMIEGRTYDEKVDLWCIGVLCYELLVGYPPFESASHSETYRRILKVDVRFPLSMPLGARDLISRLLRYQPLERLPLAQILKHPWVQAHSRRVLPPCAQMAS
parameter: residual activity (%)
The answer is to be given in %; state only the numeric part.

The following molecules have reported results that may help.
mol.smiles	unit.tag	residual activity
O=C1NC(=O)C(c2cn(CCCn3ccnc3)c3ccccc23)=C1Nc1ccccc1	%	89.8
CCOC(=O)c1c(C)[nH]c(/C=C2\C(=O)Nc3ccccc32)c1C	%	89.1
Cc1ccc(S(=O)(=O)/C=C/C#N)cc1	%	97.1

// residual activity (AURKC (human) (UniProt Q9UQB9)) for `CCC(=O)Nc1ccc2ncnc(Nc3cccc(Br)c3)c2c1` = 102

With AURKC (human) (UniProt Q9UQB9) as the test system, `CC(=O)c1ccc(N2CCOCC2)cc1O` showed residual activity of 104

----------
biological target: PTK2B (human); assay: radiometric filter-binding kinase assay, Kinase HotSpot; settings: compound 0.5 µM; ATP 10 µM
Lab note: anything with residual activity at or over 90% counts as class 1; the rest go in class 0.

mol.smiles	cat
O=C1Nc2ccc(Cl)cc2/C1=C/c1cc(Cl)c(O)c(Cl)c1	class 1
CC#CC(=O)Nc1cc2c(Nc3ccc(F)c(Cl)c3)ncnc2cn1	class 1

Qu. Say whether `COc1cc2ncnc(Nc3cccc(Cl)c3)c2cc1OC` shows residual activity of 90% or more.
Ans. class 0

Qu. Please check the record `O=C1NC(=O)C(c2cn(CCCn3ccnc3)c3ccccc23)=C1Nc1ccccc1` and state if its residual activity is at or above 90%.
Ans. class 1

Qu. I'd appreciate it if you could say whether `CC[n+]1c(/C=C/N(C)c2ccccc2)n(-c2ccccc2)c2ccc(-c3nc4ccccc4s3)cc21` has residual activity at least equal to 90%.
Ans. class 1

Qu. Hello, I need to know if `Nc1ccc2ncnc(NCCc3ccc(Oc4ccccc4)cc3)c2c1` has measured residual activity not below 90%. Thanks!
Ans. class 1

Qu. Is reported residual activity greater than or equal to 90% here: `Nc1cccc(-c2cc3c(Oc4cccc(O)c4)ncnc3[nH]2)c1`
Ans. class 0

Qu. Could you tell me if the measured residual activity of `N#CC(C#N)=C(N)/C(C#N)=C/c1ccc(O)cc1` reaches 90% or more?
Ans. class 1

----------
target: PRKCG (human) (UniProt P05129); assay: radiometric filter-binding kinase assay, Kinase HotSpot; conditions: compound 0.5 µM; ATP 10 µM
parameter: residual activity (%)
Express the result in % but write the number alone.

Completed entries (count: 10):
molecule	target.desc	residual activity / %
CC#CC(=O)Nc1cc2c(Nc3ccc(F)c(Cl)c3)ncnc2cn1	PRKCG (human) (UniProt P05129)	97.2
CC(C)N(CCC(=O)c1ccc2ccccc2c1)Cc1ccccc1	PRKCG (human) (UniProt P05129)	92.7
Cc1[nH]c(/C=C2\C(=O)Nc3ccc(S(=O)(=O)N(C)c4cccc(Cl)c4)cc32)c(C)c1C(=O)N1CCN(C)CC1	PRKCG (human) (UniProt P05129)	94.8
O=C1NC(=O)C(c2cn(CCCn3ccnc3)c3ccccc23)=C1Nc1ccccc1	PRKCG (human) (UniProt P05129)	51.6
c1ccc(-c2n[nH]cc2-c2ccnc3ccccc23)nc1	PRKCG (human) (UniProt P05129)	117
COc1cc2ncnc(Nc3cccc(Cl)c3)c2cc1OC	PRKCG (human) (UniProt P05129)	105
Cc1ccc(Nc2nccc(N(C)c3ccc4c(C)n(C)nc4c3)n2)cc1S(N)(=O)=O	PRKCG (human) (UniProt P05129)	93.5
CCN(CC)CCNC(=O)c1c(C)[nH]c(/C=C2\C(=O)Nc3ccc(F)cc32)c1C	PRKCG (human) (UniProt P05129)	83.8
CC(=O)c1ccc(N2CCOCC2)cc1O	PRKCG (human) (UniProt P05129)	98.7
O=C1NC(=O)c2c1c1c3ccccc3n3c1c1c2c2ccccc2n1C1CCC3O1	PRKCG (human) (UniProt P05129)	32.8

Briefly, residual activity measured for `CNC(=O)c1cc(Oc2ccc(NC(=O)Nc3ccc(Cl)c(C(F)(F)F)c3)cc2)ccn1` : 94.7

Per the records, this molecule ( `Nc1ncnc2[nH]nc(Nc3ccc(F)cc3)c12` ) has residual activity equal to 96

Data point: `Nc1ncnc2c1c(-c1ccc(Oc3ccccc3)cc1)cn2C1CCCC1` ; residual activity = 96.1

----------
target: IRAK1 (human); test: radiometric filter-binding kinase assay, Kinase HotSpot; conditions: compound 0.5 µM; ATP 10 µM
Recorded residual activity, one value per entry.
# number only, unit % dropped from output

mol.smiles	target.desc	residual activity, %
CCOC(=O)c1c(C)[nH]c(/C=C2\C(=O)Nc3ccccc32)c1C	IRAK1 (human)	111

// assay IRAK1 (human), entry `O=c1cc(N2CCOCC2)oc2c1ccc1ccccc12` , residual activity value = 112

Considering `CC#CC(=O)Nc1cc2c(Nc3ccc(F)c(Cl)c3)ncnc2cn1` , its residual activity with IRAK1 (human) was recorded as 104

GET /values?item= `O=C1NC(=O)c2c1c1c3ccccc3n3c1c1c2c2ccccc2n1C1CCC3O1` &system= IRAK1 (human) returns residual activity: 37.5

Form field, residual activity with IRAK1 (human), item `Cc1[nH]c(/C=C2\C(=O)Nc3ccc(S(=O)(=O)N(C)c4cccc(Cl)c4)cc32)c(C)c1C(=O)N1CCN(C)CC1` : 57.7

----------
molecular target: ROCK2 (human) (UniProt O75116); assay: radiometric filter-binding kinase assay, Kinase HotSpot; details: compound 0.5 µM; ATP 10 µM
Sequence (O75116 whole entry, looked up): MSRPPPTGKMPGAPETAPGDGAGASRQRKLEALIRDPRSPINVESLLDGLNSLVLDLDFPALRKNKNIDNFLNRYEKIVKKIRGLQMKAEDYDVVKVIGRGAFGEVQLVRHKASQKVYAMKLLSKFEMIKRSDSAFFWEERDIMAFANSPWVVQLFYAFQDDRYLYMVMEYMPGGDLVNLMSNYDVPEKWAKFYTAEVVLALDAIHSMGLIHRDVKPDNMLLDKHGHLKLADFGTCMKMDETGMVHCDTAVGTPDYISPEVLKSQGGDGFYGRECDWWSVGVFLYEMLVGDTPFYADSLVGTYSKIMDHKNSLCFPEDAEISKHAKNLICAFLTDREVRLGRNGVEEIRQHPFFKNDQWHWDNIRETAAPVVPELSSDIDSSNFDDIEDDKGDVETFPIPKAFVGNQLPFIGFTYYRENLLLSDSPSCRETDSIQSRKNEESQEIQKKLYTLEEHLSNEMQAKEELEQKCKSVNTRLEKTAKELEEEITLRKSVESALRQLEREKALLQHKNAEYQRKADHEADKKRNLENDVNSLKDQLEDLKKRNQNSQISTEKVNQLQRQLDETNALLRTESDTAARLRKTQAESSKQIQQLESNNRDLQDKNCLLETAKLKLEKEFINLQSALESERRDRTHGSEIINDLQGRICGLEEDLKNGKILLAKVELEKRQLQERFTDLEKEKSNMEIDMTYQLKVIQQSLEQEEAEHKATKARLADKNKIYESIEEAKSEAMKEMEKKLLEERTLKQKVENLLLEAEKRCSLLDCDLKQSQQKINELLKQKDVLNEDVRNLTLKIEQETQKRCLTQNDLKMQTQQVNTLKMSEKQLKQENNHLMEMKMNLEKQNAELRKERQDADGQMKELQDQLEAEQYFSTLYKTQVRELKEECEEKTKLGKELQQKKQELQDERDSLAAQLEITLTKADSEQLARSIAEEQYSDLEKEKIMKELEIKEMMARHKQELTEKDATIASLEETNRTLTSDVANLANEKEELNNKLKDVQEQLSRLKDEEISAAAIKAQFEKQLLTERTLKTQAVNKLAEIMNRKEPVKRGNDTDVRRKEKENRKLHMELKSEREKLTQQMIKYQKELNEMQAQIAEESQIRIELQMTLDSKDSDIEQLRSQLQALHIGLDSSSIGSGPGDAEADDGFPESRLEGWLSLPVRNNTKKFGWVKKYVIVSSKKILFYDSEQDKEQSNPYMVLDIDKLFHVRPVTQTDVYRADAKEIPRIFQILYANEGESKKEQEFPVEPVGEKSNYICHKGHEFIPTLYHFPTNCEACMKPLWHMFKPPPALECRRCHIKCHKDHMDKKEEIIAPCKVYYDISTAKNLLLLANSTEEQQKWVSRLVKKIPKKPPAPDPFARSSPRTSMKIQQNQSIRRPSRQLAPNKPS
Decision: residual activity compared against 90%; not below it gives t, below it gives f.

Below are worked cases with known answers.
mol.smiles	cat
O=c1cc(N2CCOCC2)oc2c1ccc1ccccc12	t
CNc1cc2c(Nc3cccc(Br)c3)ncnc2cn1	t

Qu. Form field: residual activity at least 90%? Entry: `CC(C)N(CCC(=O)c1ccc2ccccc2c1)Cc1ccccc1`
Ans. t

Qu. For this molecule, is measured residual activity 90% or higher? `CCN(CC)CCNC(=O)c1c(C)[nH]c(/C=C2\C(=O)Nc3ccc(F)cc32)c1C`
Ans. f

Qu. Does the molecule `CNC(=O)c1cc(Oc2ccc(NC(=O)Nc3ccc(Cl)c(C(F)(F)F)c3)cc2)ccn1` have recorded residual activity that is 90% or more?
Ans. t

Qu. API: above_or_equal(metric=residual activity, cutoff=90%) for item `CC#CC(=O)Nc1cc2c(Nc3ccc(F)c(Cl)c3)ncnc2cn1`
Ans. t

Qu. Tell me whether residual activity is at least 90% here: `CCN(CC)C(=O)c1ccc(Nc2nc(OCC3CCCCC3)c3nc[nH]c3n2)cc1`
Ans. f

Qu. Reported residual activity at or above 90%? `O=C1NC(=O)C(c2cn(CCCn3ccnc3)c3ccccc23)=C1Nc1ccccc1`
Ans. t

Qu. # check: residual activity of `Cc1ccc(S(=O)(=O)/C=C/C#N)cc1` is greater than or equal to 90%
Ans. t

----------
molecular target: UniProt:P51955; assay: radiometric filter-binding kinase assay, Kinase HotSpot; settings: compound 0.5 µM; ATP 10 µM
Sequence (P51955 whole entry, looked up): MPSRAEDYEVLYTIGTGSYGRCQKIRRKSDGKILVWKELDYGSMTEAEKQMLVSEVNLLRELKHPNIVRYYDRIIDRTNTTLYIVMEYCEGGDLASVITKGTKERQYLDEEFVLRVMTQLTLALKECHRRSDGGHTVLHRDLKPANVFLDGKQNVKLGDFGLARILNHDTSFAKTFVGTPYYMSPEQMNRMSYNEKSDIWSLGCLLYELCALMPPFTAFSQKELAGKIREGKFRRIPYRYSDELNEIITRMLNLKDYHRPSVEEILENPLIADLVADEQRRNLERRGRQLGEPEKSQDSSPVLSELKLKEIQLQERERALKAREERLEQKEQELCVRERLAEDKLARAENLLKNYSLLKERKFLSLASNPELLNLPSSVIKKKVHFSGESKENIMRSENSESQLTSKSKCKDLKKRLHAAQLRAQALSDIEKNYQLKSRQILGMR
Below is a list of entries, each paired with its recorded residual activity value.

mol.smiles	target.desc	result
CC(C)N(CCC(=O)c1ccc2ccccc2c1)Cc1ccccc1	UniProt:P51955	86.9%
O=C1NC(=O)c2c1c1c3ccccc3n3c1c1c2c2ccccc2n1C1CCC3O1	UniProt:P51955	93.8%
N#CC(C#N)=C(N)/C(C#N)=C/c1ccc(O)cc1	UniProt:P51955	102%

Given item `COc1ccc(COc2ccc(Cc3cnc(N)nc3N)cc2OC)cc1` , the value recorded as its residual activity is 99.2%

get_value(item= `O=C(Nc1cccc(Nc2nccc(Nc3cccc(C(F)(F)F)c3)n2)c1)C1CC1` , readout=residual activity) returns 95.3%

For `O=S(=O)(c1cccc2cnccc12)N1CCCNCC1` the compound record lists residual activity as 92.3%
